Test system: ATP;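 note: ATP exposure 15 min at 22 °C before imaging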
Experiment: switch fluorescence ratio, 500 uM ATP over buffer (Cy3 cluster intensity, sum of 5 cycles each) (fold (ratio)); higher = stronger signal-on switching upon ATP binding; sequences stand for … in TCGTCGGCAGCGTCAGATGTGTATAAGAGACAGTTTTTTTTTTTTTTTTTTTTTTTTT…TC
Details: aptamer strand: ATP DNA aptamer (quencher-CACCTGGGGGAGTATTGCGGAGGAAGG + anchor), 100 nM annealed; ATP concentration: 500 uM
parameter_measured: switch fluorescence ratio
Numbers only.

State its switch fluorescence ratio: "TTGGGGTTCG"
0.98

Provide switch fluorescence ratio for all items below, preserving their order.
1. CAGATTTAGC
2. GACGTCTGGC

[0.973, 1.14]

----------
Tested on: ATP;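 note: ATP exposure 15 min at 22 °C before imaging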
Test: switch fluorescence ratio, 500 uM ATP over buffer (Cy3 cluster intensity, sum of 5 cycles each) (fold (ratio)); higher = stronger signal-on switching upon ATP binding; sequences stand for … in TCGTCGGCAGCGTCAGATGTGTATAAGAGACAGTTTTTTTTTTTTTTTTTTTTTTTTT…TC
Settings: aptamer strand: ATP DNA aptamer (quencher-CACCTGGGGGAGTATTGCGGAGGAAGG + anchor), 100 nM annealed; ATP concentration: 500 uM
Kindly state switch fluorescence ratio for each of the entries shown.
Answers are plain numbers.

Please report the measured switch fluorescence ratio for "AATAATCGGT" tested on ATP.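 Note: ATP exposure 15 min at 22 °C before imaging.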
0.975

Hi! Can you tell me switch fluorescence ratio for each of these sequences?
1. AGAACGGCGG
2. TTATTGGACT
3. GGGGAGGGCC
4. GAGTACGGGA
5. ACGATGGTTT
6. CGCACTGTGG

1: 0.972; 2: 1.02; 3: 1.01; 4: 1.09; 5: 0.984; 6: 1.03

Record switch fluorescence ratio per entry; entries follow.
1. TCATAGGTCA
2. TTCTGGATTA
3. AAGCTTTGGA
4. GCTGTGGGGG

[0.972, 0.994, 0.983, 0.966]

Quick one: give me switch fluorescence ratio for each item below, same order please.
1. GGTGCTAGTG
2. GAAATTGGTT

0.999
0.988

----------
Tested on: ATP;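 note: ATP exposure 15 min at 22 °C before imaging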
Test: switch fluorescence ratio, 500 uM ATP over buffer (Cy3 cluster intensity, sum of 5 cycles each) (fold (ratio)); higher = stronger signal-on switching upon ATP binding; sequences stand for … in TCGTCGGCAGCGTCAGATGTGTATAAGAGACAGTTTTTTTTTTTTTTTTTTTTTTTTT…TC
Conditions: aptamer strand: ATP DNA aptamer (quencher-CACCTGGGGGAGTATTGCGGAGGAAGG + anchor), 100 nM annealed; ATP concentration: 500 uM
parameter_measured: switch fluorescence ratio
One number for each entry.

Quick one: give measured switch fluorescence ratio for "CGGCGTTATG"
0.988

For each listed entry, give its switch fluorescence ratio.
1. TATATTGCGT
2. TACTGTGGTT
3. GGGTTGTCGT
4. TGATTAGCAA

1. 0.971
2. 1
3. 1.01
4. 1.26

----------
Tested on: ATP;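 note: ATP exposure 15 min at 22 °C before imaging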
Experiment: switch fluorescence ratio, 500 uM ATP over buffer (Cy3 cluster intensity, sum of 5 cycles each) (fold (ratio)); higher = stronger signal-on switching upon ATP binding; sequences stand for … in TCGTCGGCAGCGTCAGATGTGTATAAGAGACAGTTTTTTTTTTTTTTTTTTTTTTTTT…TC
Settings: aptamer strand: ATP DNA aptamer (quencher-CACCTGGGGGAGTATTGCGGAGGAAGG + anchor), 100 nM annealed; ATP concentration: 500 uM
Cut-off 1 on switch fluorescence ratio, inclusive. At or above means 1; below means 0.

Given "GCGTGCATTC" , state whether its switch fluorescence ratio is at least 1.
1

New cases:
Please tell me: is the sequence "GTGCCCAACG" at or over 1 in terms of switch fluorescence ratio?
1

Confirm if switch fluorescence ratio reported for the sequence "AAGCACGGTT" is 1 or above.
1

Please indicate if the recorded switch fluorescence ratio for "GGGTGATGGT" meets or exceeds 1.
0

Check this sequence for switch fluorescence ratio at or above 1: "GCCAGGGGGA"
1

Given the entry "TGGTTGTTCC" , answer whether its switch fluorescence ratio meets or surpasses 1.
1

Has "ACCGCCGTCA" a recorded switch fluorescence ratio greater than or equal to 1?
1

In plain terms: is recorded switch fluorescence ratio at least 1 for "ATTAATCGAC" ?
1

Kindly determine if switch fluorescence ratio recorded for "GAAACAGACA" is above or exactly 1.
1

In plain terms: is recorded switch fluorescence ratio at least 1 for "ATTGTAAGTG" ?
1

Has "TTGTACATCC" a recorded switch fluorescence ratio greater than or equal to 1?
1

Hi, just wondering whether "CTGGGAGGTT" shows switch fluorescence ratio of 1 or higher.
0
